- Test system: Monochoria vaginalis
- method_summary: Paddy herbicidal activity test
- Format: in vivo
- reported_conditions: 5g a.i./10a; irrigated paddy pot; 30 days, 30° C.
measured_quantity: herbicidal efficacy, Monochoria vaginalis

See these solved cases before continuing.
N#Cc1cnn(-c2nn3c(c2Cl)CCCC3)c1NC(=O)C1CC1 [Control agent 4.190, reference compound] : 5 (5: 50% to less than 60%)
O=C(Nc1c([N+](=O)[O-])cnn1-c1nn2c(c1Cl)CCCC2)C1CC1 : 10 (10: 100%)
O=C(CC1CC1)Nc1c([N+](=O)[O-])cnn1-c1nn2c(c1Cl)CCCC2 : 10 (10: 100%)

Kindly review the next compound as well.
Name the reported herbicidal efficacy, Monochoria vaginalis value associated with the compound `O=C(Nc1c([N+](=O)[O-])cnn1-c1nn2c(c1Cl)CCCC2)C1CCCC1`
10 (10: 100%)

----------
- Tested on: Echinochloa crus-galli
- method_summary: Paddy herbicidal activity test
- Format: in vivo
- reported_conditions: 1g a.i./10a; irrigated paddy pot, treated at 3.5 leaf stage of Echinochloa crus-galli; 30 days, 30° C.
- Experimental: 1. Paddy Herbicidal Activity Test […] Evaluation of herbicidal efficacy was carried out by comparing growth inhibition rate (%) with an untreated group, while evaluation of phytotoxicity was carried out by comparing growth inhibition rate (%) with the state of a complete eradication group, and were evaluated at 11 levels indicated below.
The following compounds are shown together with reported herbicidal efficacy, Echinochloa crus-galli values.

O=C(Nc1c([N+](=O)[O-])cnn1-c1nn2c(c1Cl)CCCC2)C1CC1 : 10 (10: 100%)

State the recorded herbicidal efficacy, Echinochloa crus-galli for this entry: `O=C(Nc1c([N+](=O)[O-])cnn1-c1nn2c(c1Cl)CCCC2)C1CCCC1`
10 (10: 100%)

Can you look up the measured herbicidal efficacy, Echinochloa crus-galli of N#Cc1cnn(-c2nn3c(c2Cl)CCCC3)c1NC(=O)C1CC1 [Control agent 4.190, reference compound] for me?
6 (6: 60% to less than 70%)

Give the measured herbicidal efficacy, Echinochloa crus-galli of `O=C(CC1CC1)Nc1c([N+](=O)[O-])cnn1-c1nn2c(c1Cl)CCCC2` .
9 (9: 90% to less than 100%)

----------
Catalogue of herbicidal efficacy, Digitaria ciliaris values
- Tested on: Digitaria ciliaris
- method_summary: Weed foliar treatment test (Test 3, 1.0 to 2.0 leaf stage)
- Assay type: in vivo
- reported_conditions: 5g a.i./10a; foliar spray at 1.0 to 2.0 leaf stage of Digitaria ciliaris; 3 weeks, 25° C.

O=C(CC1CC1)Nc1c([N+](=O)[O-])cnn1-c1nn2c(c1Cl)CCCC2 : 9 (9: 90% to less than 100%)
O=C(Nc1c([N+](=O)[O-])cnn1-c1nn2c(c1Cl)CCCC2)C1CCCC1 : 10 (10: 100%)

Value lookup for herbicidal efficacy, Digitaria ciliaris; key = N#Cc1cnn(-c2nn3c(c2Cl)CCCC3)c1NC(=O)C1CC1 [Control agent 4.190, reference compound]
5 (5: 50% to less than 60%)

May I ask what herbicidal efficacy, Digitaria ciliaris has been recorded for `O=C(Nc1c([N+](=O)[O-])cnn1-c1nn2c(c1Cl)CCCC2)C1CC1` ?
10 (10: 100%)

----------
# maps each entry to its herbicidal efficacy, Scirpus juncoides
- Test system: Scirpus juncoides
- method_summary: Paddy herbicidal activity test
- Format: in vivo
- reported_conditions: 1g a.i./10a; irrigated paddy pot; 30 days, 30° C.

Recorded results for 3 molecules are shown here.
O=C(CC1CC1)Nc1c([N+](=O)[O-])cnn1-c1nn2c(c1Cl)CCCC2 [Compound 8] : 9 (9: 90% to less than 100%)
N#Cc1cnn(-c2nn3c(c2Cl)CCCC3)c1NC(=O)C1CC1 [Control agent 4.190, reference compound] : 4 (4: 40% to less than 50%)
O=C(Nc1c([N+](=O)[O-])cnn1-c1nn2c(c1Cl)CCCC2)C1CCCC1 [Compound 6] : 9 (9: 90% to less than 100%)

We next turn to a different molecule, shown below.
Value lookup for herbicidal efficacy, Scirpus juncoides; key = O=C(Nc1c([N+](=O)[O-])cnn1-c1nn2c(c1Cl)CCCC2)C1CC1 [Compound 2]
9 (9: 90% to less than 100%)
